- Test system: DLD-1 cell strain, 5-FU resistant strain, FTD resistant strain
- condition context: RIP sequencing; DLD-1, FTD parental strain
- Procedure: For an original DLD-1 cell strain and each resistant strain (5-FU resistant strain and FTD resistant strain), RNA methylation analysis in accordance with the protocol for RIP sequencing described above and microarray or mRNA expression analysis similar to the qRT-PCR of Example 2-2 was performed. […] The statistical significance of the results was evaluated by pairwise T-TEST using R version 3.4.3 (2017-11-30) on Microsoft Excel® software (Microsoft Campus, Redmond, WA, USA). […]
Recorded methylation on microRNA, FTD parental strain for the following substances
API note: the answer field is a bare number with no unit suffix.

### Prompt Field request: methylation on microRNA, FTD parental strain | item: miR-3690 (ACCUGGACCCAGCGUAGACAAAG; chemistry not fully specified; listed as Homo sapiens)
### Response 1

### Prompt Which methylation on microRNA, FTD parental strain is reported for this substance? miR-378d (ACUGGACUUGGAGUCAGAAA; chemistry not fully specified; listed as Homo sapiens)
### Response 80

### Prompt Suppose we examine the substance miR-378h (ACUGGACUUGGUGUCAGAUGG; chemistry not fully specified; listed as Homo sapiens) ; what methylation on microRNA, FTD parental strain value has been reported?
### Response 0

### Prompt Which value of methylation on microRNA, FTD parental strain has been reported for miR-3122 (GUUGGGACAAGAGGACGGUCUU; chemistry not fully specified; listed as Homo sapiens) in the records?
### Response 0

### Prompt Endpoint output: methylation on microRNA, FTD parental strain of miR-3131 (UCGAGGACUGGUGGAAGGGCCUU; chemistry not fully specified; listed as Homo sapiens) . Value?
### Response 1

### Prompt Entry miR-4754 (AUGCGGACCUGGGUUAGCGGAGU; chemistry not fully specified; listed as Homo sapiens) : reported methylation on microRNA, FTD parental strain = ?
### Response 4

### Prompt Which methylation on microRNA, FTD parental strain is reported for this substance? miR-378f (ACUGGACUUGGAGCCAGAAG; chemistry not fully specified; listed as Homo sapiens)
### Response 2

----------
Below are methylation on microRNA, 5-FU parental strain values measured for DLD-1 cell strain, 5-FU resistant strain, FTD resistant strain.

Use these answered entries as a reference point.
1. miR-492 (AGGACCUGCGGGACAAGAUUCUU; chemistry not fully specified; listed as Homo sapiens) :: 0
2. miR-3690 (ACCUGGACCCAGCGUAGACAAAG; chemistry not fully specified; listed as Homo sapiens) :: 0
3. miR-378i (ACUGGACUAGGAGUCAGAAGG; chemistry not fully specified; listed as Homo sapiens) :: 18

// next item, methylation on microRNA, 5-FU parental strain requested
### Prompt Request body: readout methylation on microRNA, 5-FU parental strain, system DLD-1 cell strain, 5-FU resistant strain, FTD resistant strain, query miR-378d (ACUGGACUUGGAGUCAGAAA; chemistry not fully specified; listed as Homo sapiens) . Return the value.
### Response 144

----------
- Tested on: DLD-1 cell strain, 5-FU resistant strain, FTD resistant strain
- condition context: FTD resistant versus parental strain
Listed here: items and their measured Rate of change, FTD resistance (fold).
Please respond with the number in fold and leave the unit unwritten.

Guide cases for Rate of change, FTD resistance (fold), answers given:
1) miR-378i (ACUGGACUAGGAGUCAGAAGG; chemistry not fully specified; listed as Homo sapiens) :: 0.33
2) miR-3690 (ACCUGGACCCAGCGUAGACAAAG; chemistry not fully specified; listed as Homo sapiens) :: 0.00
3) miR-378e (ACUGGACUUGGAGUCAGGA; chemistry not fully specified; listed as Homo sapiens) :: 0.86

### Prompt What measured Rate of change, FTD resistance (fold) goes with miR-4754 (AUGCGGACCUGGGUUAGCGGAGU; chemistry not fully specified; listed as Homo sapiens) ?
### Response 0.00

### Prompt Bench note: what Rate of change, FTD resistance (fold) did miR-378d (ACUGGACUUGGAGUCAGAAA; chemistry not fully specified; listed as Homo sapiens) show?
### Response 0.36

The reported measurements were obtained from patent US20230175066A1.
